Measured values drawn from patent US11566022B2 for this set.

# target: HiBit-WIZ fusion protein (Homo sapiens, UniProt O95785+Q96SW2)
# Sequence (O95785 whole entry, the tested form may be a part): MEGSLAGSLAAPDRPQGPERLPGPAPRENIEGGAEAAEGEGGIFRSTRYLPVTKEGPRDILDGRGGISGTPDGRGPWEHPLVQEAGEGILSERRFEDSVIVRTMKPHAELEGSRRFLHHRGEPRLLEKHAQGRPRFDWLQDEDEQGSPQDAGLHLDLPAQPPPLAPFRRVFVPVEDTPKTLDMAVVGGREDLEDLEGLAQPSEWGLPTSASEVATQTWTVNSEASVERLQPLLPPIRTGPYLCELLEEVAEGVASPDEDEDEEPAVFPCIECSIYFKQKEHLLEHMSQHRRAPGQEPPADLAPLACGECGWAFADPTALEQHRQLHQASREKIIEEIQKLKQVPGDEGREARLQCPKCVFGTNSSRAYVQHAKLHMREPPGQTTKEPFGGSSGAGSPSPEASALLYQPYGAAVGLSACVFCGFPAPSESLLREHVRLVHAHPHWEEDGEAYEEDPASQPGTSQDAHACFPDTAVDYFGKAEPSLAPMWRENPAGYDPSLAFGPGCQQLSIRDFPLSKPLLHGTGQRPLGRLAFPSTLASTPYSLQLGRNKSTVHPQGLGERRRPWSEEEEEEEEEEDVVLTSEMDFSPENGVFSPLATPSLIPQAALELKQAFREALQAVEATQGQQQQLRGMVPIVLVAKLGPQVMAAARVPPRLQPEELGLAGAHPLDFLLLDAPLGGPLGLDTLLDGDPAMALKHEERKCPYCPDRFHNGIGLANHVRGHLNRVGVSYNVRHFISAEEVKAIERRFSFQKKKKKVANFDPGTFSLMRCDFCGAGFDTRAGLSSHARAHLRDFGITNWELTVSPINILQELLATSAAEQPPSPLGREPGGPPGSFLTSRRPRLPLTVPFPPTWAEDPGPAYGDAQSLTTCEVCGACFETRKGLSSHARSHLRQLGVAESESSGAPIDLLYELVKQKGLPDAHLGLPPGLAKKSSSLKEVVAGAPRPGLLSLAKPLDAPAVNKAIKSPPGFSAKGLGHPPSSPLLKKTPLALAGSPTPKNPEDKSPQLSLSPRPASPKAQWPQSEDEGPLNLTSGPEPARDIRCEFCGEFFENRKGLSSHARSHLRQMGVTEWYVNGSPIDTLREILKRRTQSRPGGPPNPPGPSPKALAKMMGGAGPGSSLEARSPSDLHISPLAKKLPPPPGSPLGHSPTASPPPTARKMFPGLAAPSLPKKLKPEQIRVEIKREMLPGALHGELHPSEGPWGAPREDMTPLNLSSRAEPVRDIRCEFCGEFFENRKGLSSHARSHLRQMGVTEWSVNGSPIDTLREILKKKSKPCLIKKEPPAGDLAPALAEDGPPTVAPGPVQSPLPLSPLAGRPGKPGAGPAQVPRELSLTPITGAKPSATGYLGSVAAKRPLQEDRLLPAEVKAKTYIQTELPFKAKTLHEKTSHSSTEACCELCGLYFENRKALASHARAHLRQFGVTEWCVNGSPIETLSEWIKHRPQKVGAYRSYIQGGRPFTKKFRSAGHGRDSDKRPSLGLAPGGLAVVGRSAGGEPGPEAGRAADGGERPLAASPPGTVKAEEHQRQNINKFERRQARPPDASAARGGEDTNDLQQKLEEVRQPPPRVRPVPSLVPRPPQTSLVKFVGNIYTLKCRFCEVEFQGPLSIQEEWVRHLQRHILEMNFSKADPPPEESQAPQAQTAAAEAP
# Sequence (Q96SW2 whole entry, the tested form may be a part): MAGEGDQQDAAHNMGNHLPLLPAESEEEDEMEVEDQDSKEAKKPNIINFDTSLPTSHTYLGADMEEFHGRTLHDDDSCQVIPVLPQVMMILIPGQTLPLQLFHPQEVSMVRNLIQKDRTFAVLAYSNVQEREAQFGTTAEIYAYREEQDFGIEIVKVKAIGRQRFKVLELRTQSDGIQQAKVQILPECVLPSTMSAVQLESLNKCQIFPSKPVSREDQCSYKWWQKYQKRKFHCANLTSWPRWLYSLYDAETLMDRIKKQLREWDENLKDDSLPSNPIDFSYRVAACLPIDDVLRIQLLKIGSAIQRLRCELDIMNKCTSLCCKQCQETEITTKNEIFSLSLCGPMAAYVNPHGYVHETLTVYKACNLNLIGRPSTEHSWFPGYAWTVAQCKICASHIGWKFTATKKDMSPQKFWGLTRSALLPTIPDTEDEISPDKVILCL
# Sequence (Q16531 whole entry partner, the tested form may be a part): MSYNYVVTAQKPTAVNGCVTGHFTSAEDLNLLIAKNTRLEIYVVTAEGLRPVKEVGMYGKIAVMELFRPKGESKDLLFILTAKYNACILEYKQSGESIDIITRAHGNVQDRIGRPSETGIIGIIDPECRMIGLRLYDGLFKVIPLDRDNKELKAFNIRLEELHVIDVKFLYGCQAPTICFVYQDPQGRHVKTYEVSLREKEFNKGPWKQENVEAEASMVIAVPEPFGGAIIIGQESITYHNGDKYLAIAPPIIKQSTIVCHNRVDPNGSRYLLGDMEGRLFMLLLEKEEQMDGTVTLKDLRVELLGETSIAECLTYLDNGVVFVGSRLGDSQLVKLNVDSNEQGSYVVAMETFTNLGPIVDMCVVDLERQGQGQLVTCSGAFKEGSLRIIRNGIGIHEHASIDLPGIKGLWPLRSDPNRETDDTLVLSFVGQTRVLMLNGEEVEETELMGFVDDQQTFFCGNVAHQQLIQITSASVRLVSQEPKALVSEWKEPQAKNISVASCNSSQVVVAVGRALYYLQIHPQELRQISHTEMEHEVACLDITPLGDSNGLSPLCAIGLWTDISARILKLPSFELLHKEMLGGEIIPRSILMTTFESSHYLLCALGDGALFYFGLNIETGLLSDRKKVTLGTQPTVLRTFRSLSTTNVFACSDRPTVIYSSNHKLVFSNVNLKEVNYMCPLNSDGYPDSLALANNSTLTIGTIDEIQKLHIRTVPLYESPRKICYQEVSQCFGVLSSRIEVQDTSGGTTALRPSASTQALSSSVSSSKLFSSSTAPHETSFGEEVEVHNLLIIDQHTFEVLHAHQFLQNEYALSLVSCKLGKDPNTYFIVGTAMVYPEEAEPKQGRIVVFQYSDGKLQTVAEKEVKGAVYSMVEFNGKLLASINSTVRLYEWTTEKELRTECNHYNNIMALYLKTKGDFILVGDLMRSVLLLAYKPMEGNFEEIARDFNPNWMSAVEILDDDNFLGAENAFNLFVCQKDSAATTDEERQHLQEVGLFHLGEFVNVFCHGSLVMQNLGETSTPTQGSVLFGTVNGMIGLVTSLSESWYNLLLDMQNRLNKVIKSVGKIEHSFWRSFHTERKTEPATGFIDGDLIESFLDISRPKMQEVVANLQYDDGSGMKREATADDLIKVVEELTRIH
# assay.comment: Quantification of WIZ protein levels in HiBit tag fusion protein assay (WIZ HiBit assay in 293T cells)
# Assay type: cell-based
# Design: dose or concentration left out as unconfirmed
# experimental.context: HEK-293T, 100 minus Amax; 293T cells; read-out: % degradation of WIZ (100-Amax)
observation.type: Dmax (%)
I only need the number, in %, no unit after it.

Example cases with answers are listed next.
// Dmax lookup, key: COc1cc(C#N)ccc1CN1CCCC[C@@H]1COc1ccc2c(c1)CN(C1CCC(=O)NC1=O)C2=O (stereo partly shown) [Compound I-50cm]
67.2

// returns reported Dmax for input CCc1ncc(C(=O)N2CCCC[C@H]2COc2ccc3c(c2)CN(C2CCC(=O)NC2=O)C3=O)s1 (stereo partly shown) [Compound I-72jf]
34.2

Sample CC(C)(C)c1ccc(CN2CCCC[C@@H]2COc2ccc3c(c2)CN(C2CCC(=O)NC2=O)C3=O)cc1 (stereo partly shown) — what was its Dmax?
94.1

Look at this compound and give its reported Dmax. O=C1CCC(N2Cc3cc(OC[C@@H]4CCCCN4C(=O)[C@@H]4CCCCN4C4CC4)ccc3C2=O)C(=O)N1 (stereo partly shown) [Compound I-72f]
0.9

Please look up its Dmax: Cc1nccn1-c1ccc(CN2CCCC[C@H]2COc2ccc3c(c2)CN(C2CCC(=O)NC2=O)C3=O)cc1 (stereo partly shown) [Compound I-50u]
70.1

Continuing:
Given the entry CC(C)n1nccc1C(=O)N1CCCC[C@H]1COc1ccc2c(c1)CN(C1CCC(=O)NC1=O)C2=O (stereo partly shown) [Compound I-72ez] , report its measured Dmax.
0

Reported Dmax for Cc1nc(C(=O)N2CCCC[C@H]2COc2ccc3c(c2)CN(C2CCC(=O)NC2=O)C3=O)c(C)s1 (stereo partly shown) [Compound I-72fp] : what is it?
9.5
